Here, each record is paired with measured chromatographic logP data.
- method-notes: logP determination by retention times (calibration with alkan-2-ones)

molecule | chromatographic logP
COc1ccc(Nc2nccc(-c3sc(N)nc3C)n2)cc1Cl | 1.63
Cc1nc(C(C)C)sc1-c1ccnc(Nc2cccc([N+](=O)[O-])c2)n1 | 3.55
COc1ccc(Nc2nccc(-c3sc(C4CC4)nc3C)n2)cc1OC | 2.6
COCCOC(=O)Nc1ccc(Nc2nccc(-c3sc(C4CC4)nc3C)n2)cc1 | 2.51
COc1ccc(OC)c(Nc2nccc(-c3sc(C4CC4)nc3C)n2)c1 | 3.71
CCc1nc(C)c(-c2ccnc(Nc3ccc(F)cc3)n2)s1 | 3.1
CCOC(=O)c1cccc(Nc2nccc(-c3sc(C4CC4)nc3C)n2)c1 | 3.56
Cc1nc(N)sc1-c1ccnc(Nc2cccc(Cl)c2)n1 | 1.78
CCc1nc(C)c(-c2ccnc(Nc3cccc(C(F)(F)F)c3)n2)s1 | 3.85
COCc1nc(C)c(-c2ccnc(Nc3cccc(C(F)(F)F)c3)n2)s1 | 3.41
Cc1nc(C2CCCCC2)sc1-c1ccnc(Nc2cccc(O)c2)n1 | 3.33
COCc1nc(C)c(-c2ccnc(Nc3ccc4c(c3)OCCO4)n2)s1 | 2.49
Cc1nc(C2CCCCC2)sc1-c1ccnc(Nc2cccc([N+](=O)[O-])c2)n1 | 4.63
Cc1nc(C)c(-c2ccnc(Nc3ccc(F)cc3)n2)s1 | 2.65
COCC(C)Nc1nc(C)c(-c2ccnc(Nc3cccc([N+](=O)[O-])c3)n2)s1 (stereo not shown) | 2.2
Cc1nc(N(C)c2ccccc2)sc1-c1ccnc(Nc2ccccc2)n1 | 3.21
Cc1nc(C)c(-c2ccnc(Nc3ccc(F)c(C)c3)n2)s1 | 3.07
COc1ccc(Nc2nccc(-c3sc(SC)nc3C)n2)cc1OC | 2.78
CSc1nc(C)c(-c2ccnc(Nc3ccccc3)n2)s1 | 3.34
